This listing pairs variants with measured protein stability index.
B1: VAMP4 (parent)
chain: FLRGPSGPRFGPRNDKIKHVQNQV

- Variants of: B1
- Assay Summary: protein stability index of a GFP-peptide fusion (GPS, HEK-293T) (PSI 1-6); higher = more stable;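 further: lentivirally expressed fusions sorted by FACS into six bins by GFP to DsRed ratio, PSI derived from sequencing read proportions per bin multiplied by bin number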
- Test Conditions: c terminus: a fixed tail appended
Give a plain numeric answer without units written out.

Worked examples follow.
Variant String: G7C
protein stability index: 2.94
--
Variant String: V24C
protein stability index: 2.22
--
Variant String: Q23K
protein stability index: 2.22
--
Variant String: L2Q
protein stability index: 2.73
--
Variant String: S6A
protein stability index: 2.76
--
Variant String: L2P
protein stability index: 3.18

Q: Write down protein stability index measured for item G11Y
Result: 2.16

Q: Write down protein stability index measured for item F10M
Result: 3.24

Q: Write down protein stability index measured for item N14K
Result: 2.41

Q: Write down protein stability index measured for item P8H
Result: 2.52

Q: Write down protein stability index measured for item H19L
Result: 2.72

Q: Write down protein stability index measured for item N14R
Result: 2.68

Q: Write down protein stability index measured for item Q23W
Result: 1.84

Q: Write down protein stability index measured for item N22F
Result: 1.68

Q: Write down protein stability index measured for item Q23N
Result: 2.98

Q: Write down protein stability index measured for item V20Q
Result: 2.24

Q: Write down protein stability index measured for item P5Q
Result: 2.98

Q: Write down protein stability index measured for item R3P
Result: 2.58

Q: Write down protein stability index measured for item L2R
Result: 3.43

Q: Write down protein stability index measured for item P8Y
Result: 2.47
